Tested on: NCI-H2405
Assay: relative viability (nuclei count vs DMSO), 5 days (fraction); higher = more cells survive
Settings: first compound 0.5 µM
We label by threshold. Values of relative viability strictly beneath 0.4 are condition met. Values of 0.4 and up are condition not met.

Molecule	Class Name
Nc1ccn([C@@H]2O[C@H](CO)[C@@H](O)[C@@H]2O)c(=O)n1 [Cytarabine] + Cc1nc(Nc2ncc(C(=O)Nc3c(C)cccc3Cl)s2)cc(N2CCN(CCO)CC2)n1 [Dasatinib] (partner 0.075 µM)	condition met
Nc1ccn([C@@H]2O[C@H](CO)[C@@H](O)[C@@H]2O)c(=O)n1 [Cytarabine] + Cc1cc(Nc2cc(N3CCN(C)CC3)nc(Sc3ccc(NC(=O)C4CC4)cc3)n2)n[nH]1 [Tozasertib] (partner 0.1 µM)	condition met
Nc1ccn([C@@H]2O[C@H](CO)[C@@H](O)[C@@H]2O)c(=O)n1 [Cytarabine] + O=C(CCCCCCC(=O)Nc1ccccc1)NO [Vorinostat] (partner 1 µM)	condition met
COc1cc2nccc(Oc3ccc(NC(=O)Nc4cc(C)on4)c(Cl)c3)c2cc1OC [Tivozanib] + CC(=O)c1c(C)c2cnc(Nc3ccc(N4CCNCC4)cn3)nc2n(C2CCCC2)c1=O [Palbociclib] (partner 0.5 µM)	condition not met
COc1cc2nccc(Oc3ccc(NC(=O)Nc4cc(C)on4)c(Cl)c3)c2cc1OC [Tivozanib] + Cc1nc(Nc2ncc(C(=O)Nc3c(C)cccc3Cl)s2)cc(N2CCN(CCO)CC2)n1 [Dasatinib] (partner 0.075 µM)	condition met
Nc1ccn([C@@H]2O[C@H](CO)[C@@H](O)[C@@H]2O)c(=O)n1 [Cytarabine] + CC(C)C[C@H](NC(=O)[C@H](Cc1ccccc1)NC(=O)c1cnccn1)B(O)O [Bortezomib] (partner 0.002 µM)	condition not met
COc1cc2nccc(Oc3ccc(NC(=O)Nc4cc(C)on4)c(Cl)c3)c2cc1OC [Tivozanib] + O=C(c1cc(Cc2n[nH]c(=O)c3ccccc23)ccc1F)N1CCN(C(=O)C2CC2)CC1 [Olaparib] (partner 8 µM)	condition not met
Nc1ccn([C@@H]2O[C@H](CO)[C@@H](O)[C@@H]2O)c(=O)n1 [Cytarabine] + CS(=O)(=O)CCNCc1ccc(-c2ccc3ncnc(Nc4ccc(OCc5cccc(F)c5)c(Cl)c4)c3c2)o1 [Lapatinib] (partner 2 µM)	condition met

In the following, a different molecule is considered.
Request: is_below(relative viability, 0.4) for COc1cc2nccc(Oc3ccc(NC(=O)Nc4cc(C)on4)c(Cl)c3)c2cc1OC [Tivozanib] + CC(C)C[C@H](NC(=O)[C@H](Cc1ccccc1)NC(=O)c1cnccn1)B(O)O [Bortezomib] (partner 0.002 µM) ?
Result: condition not met

====

Test system: NCI-H1755
Experiment: relative viability (nuclei count vs DMSO), 5 days (fraction); higher = more cells survive
Conditions: first compound 0.8 µM
Entries and their relative viability
Reply with the value as a number alone.

Molecule	Measured Quantity	Experimental Result
Cc1cnc(-c2cnc(NCCNc3ccc(C#N)cn3)nc2-c2ccc(Cl)cc2Cl)[nH]1 + Nc1nc2[nH]cc(CCc3ccc(C(=O)N[C@@H](CCC(=O)O)C(=O)O)cc3)c2c(=O)[nH]1 [Pemetrexed] (partner 0.2 µM)	relative viability	0.421
O=c1[nH]c2ccccc2n1C1CCN(CCCC(c2ccc(F)cc2)c2ccc(F)cc2)CC1 [Pimozide] + CC(=O)Nc1cccc(-n2c(=O)n(C3CC3)c(=O)c3c(Nc4ccc(I)cc4F)n(C)c(=O)c(C)c32)c1 [Trametinib] (partner 0.02 µM)	relative viability	0.736
Cc1cnc(-c2cnc(NCCNc3ccc(C#N)cn3)nc2-c2ccc(Cl)cc2Cl)[nH]1 + CC(C)C[C@H](NC(=O)[C@H](Cc1ccccc1)NC(=O)c1cnccn1)B(O)O [Bortezomib] (partner 0.002 µM)	relative viability	0.828
Cc1cnc(-c2cnc(NCCNc3ccc(C#N)cn3)nc2-c2ccc(Cl)cc2Cl)[nH]1 + O=C(c1cc(Cc2n[nH]c(=O)c3ccccc23)ccc1F)N1CCN(C(=O)C2CC2)CC1 [Olaparib] (partner 8 µM)	relative viability	0.804

Request: What is its relative viability for NCI-H1755? Entry: Cc1cnc(-c2cnc(NCCNc3ccc(C#N)cn3)nc2-c2ccc(Cl)cc2Cl)[nH]1 + Cc1nc(NC(=O)N2CCC[C@H]2C(N)=O)sc1-c1ccnc(C(C)(C)C(F)(F)F)c1 [Alpelisib] (partner 2 µM)
Result: 0.901

====

Entries and their relative viability
Tested on: HCC-44
Assay: relative viability (nuclei count vs DMSO), 5 days (fraction); higher = more cells survive
Settings: first compound 0.01581 µM
Reply with the value as a number alone.

In the examples that follow, each entry is paired with its recorded relative viability.
Compound	relative viability
COc1cc2nccc(Oc3ccc(NC(=O)Nc4cc(C)on4)c(Cl)c3)c2cc1OC [Tivozanib] + CC(=O)c1c(C)c2cnc(Nc3ccc(N4CCNCC4)cn3)nc2n(C2CCCC2)c1=O [Palbociclib] (partner 0.5 µM)	0.914
COc1cc2nccc(Oc3ccc(NC(=O)Nc4cc(C)on4)c(Cl)c3)c2cc1OC [Tivozanib] + C[C@]1(O)C[C@@H](c2nc(-c3ccc4ccc(-c5ccccc5)nc4c3)c3c(N)nccn32)C1 [Linsitinib] (partner 1 µM)	0.687
Nc1ccn([C@@H]2O[C@H](CO)[C@@H](O)[C@@H]2O)c(=O)n1 [Cytarabine] + CC(=O)Nc1cccc(-n2c(=O)n(C3CC3)c(=O)c3c(Nc4ccc(I)cc4F)n(C)c(=O)c(C)c32)c1 [Trametinib] (partner 0.02 µM)	1.03

Consider the additional compound presented here.
Request: Quick one: relative viability for Nc1ccn([C@@H]2O[C@H](CO)[C@@H](O)[C@@H]2O)c(=O)n1 [Cytarabine] + O=C(c1cc(Cc2n[nH]c(=O)c3ccccc23)ccc1F)N1CCN(C(=O)C2CC2)CC1 [Olaparib] (partner 8 µM) ?
Result: 1.05

====

Test system: LU99A
Experiment: relative viability (nuclei count vs DMSO), 5 days (fraction); higher = more cells survive
Conditions: first compound 0.04 µM
Measured Quantity: relative viability
Reply with the value as a number alone.

Compound	relative viability
Cc1sc2c(c1C)C(c1ccc(Cl)cc1)=N[C@@H](CC(=O)OC(C)(C)C)c1nnc(C)n1-2 [JQ1] + Nc1nc2[nH]cc(CCc3ccc(C(=O)N[C@@H](CCC(=O)O)C(=O)O)cc3)c2c(=O)[nH]1 [Pemetrexed] (partner 0.2 µM)	0.173

Request: Quick one: relative viability for Cc1sc2c(c1C)C(c1ccc(Cl)cc1)=N[C@@H](CC(=O)OC(C)(C)C)c1nnc(C)n1-2 [JQ1] + C[C@@H](Oc1cc(-c2cnn(C3CCNCC3)c2)cnc1N)c1c(Cl)ccc(F)c1Cl [Crizotinib] (partner 1 µM) ?
Result: 0.554

Request: Param item: Cc1sc2c(c1C)C(c1ccc(Cl)cc1)=N[C@@H](CC(=O)OC(C)(C)C)c1nnc(C)n1-2 [JQ1] + CC(=O)Nc1cccc(-n2c(=O)n(C3CC3)c(=O)c3c(Nc4ccc(I)cc4F)n(C)c(=O)c(C)c32)c1 [Trametinib] (partner 0.02 µM)
Result: 0.544

Request: Param item: Cc1sc2c(c1C)C(c1ccc(Cl)cc1)=N[C@@H](CC(=O)OC(C)(C)C)c1nnc(C)n1-2 [JQ1] + CC1(C)CCC(c2ccc(Cl)cc2)=C(CN2CCN(c3ccc(C(=O)NS(=O)(=O)c4ccc(N[C@H](CCN5CCOCC5)CSc5ccccc5)c(S(=O)(=O)C(F)(F)F)c4)cc3)CC2)C1 [Navitoclax] (partner 0.5 µM)
Result: 0.746

Request: Param item: Cc1sc2c(c1C)C(c1ccc(Cl)cc1)=N[C@@H](CC(=O)OC(C)(C)C)c1nnc(C)n1-2 [JQ1] + COc1cccc2cc(-c3nc([C@H]4CC[C@H](C(=O)O)CC4)n4ncnc(N)c34)[nH]c12 [OSI-027] (partner 0.5 µM)
Result: 0.299

Request: Param item: Cc1sc2c(c1C)C(c1ccc(Cl)cc1)=N[C@@H](CC(=O)OC(C)(C)C)c1nnc(C)n1-2 [JQ1] + O=C(c1cc(Cc2n[nH]c(=O)c3ccccc23)ccc1F)N1CCN(C(=O)C2CC2)CC1 [Olaparib] (partner 8 µM)
Result: 0.264

====

System: NCI-H1915
Experiment: relative viability (nuclei count vs DMSO), 5 days (fraction); higher = more cells survive
Conditions: first compound 2.53 µM
Measured Quantity: relative viability
Reply with the value as a number alone.

In the examples that follow, each entry is paired with its recorded relative viability.
Molecule	Tgt	relative viability
O=c1[nH]c2ccccc2n1C1CCN(CCCC(c2ccc(F)cc2)c2ccc(F)cc2)CC1 [Pimozide] + C[C@]1(O)C[C@@H](c2nc(-c3ccc4ccc(-c5ccccc5)nc4c3)c3c(N)nccn32)C1 [Linsitinib] (partner 1 µM)	NCI-H1915	1.09
Cc1cnc(-c2cnc(NCCNc3ccc(C#N)cn3)nc2-c2ccc(Cl)cc2Cl)[nH]1 + Nc1ncn([C@H]2C[C@H](O)[C@@H](CO)O2)c(=O)n1 [Decitabine] (partner 2 µM)	NCI-H1915	0.264
O=c1[nH]c2ccccc2n1C1CCN(CCCC(c2ccc(F)cc2)c2ccc(F)cc2)CC1 [Pimozide] + COc1cccc2cc(-c3nc([C@H]4CC[C@H](C(=O)O)CC4)n4ncnc(N)c34)[nH]c12 [OSI-027] (partner 0.5 µM)	NCI-H1915	0.581

Request: Quick one: relative viability for Cc1cnc(-c2cnc(NCCNc3ccc(C#N)cn3)nc2-c2ccc(Cl)cc2Cl)[nH]1 + N=C(N)NC(=N)NCCc1ccccc1 [Phenformin] (partner 250 µM) ?
Result: 0.389

Request: Param item: Cc1cnc(-c2cnc(NCCNc3ccc(C#N)cn3)nc2-c2ccc(Cl)cc2Cl)[nH]1 + COc1cc2c(Oc3ccc(NC(=O)C4(C(=O)Nc5ccc(F)cc5)CC4)cc3F)ccnc2cc1OCCCN1CCOCC1 [Foretinib] (partner 0.25 µM)
Result: 1.07

Request: Param item: O=c1[nH]c2ccccc2n1C1CCN(CCCC(c2ccc(F)cc2)c2ccc(F)cc2)CC1 [Pimozide] + Cc1cc(Nc2cc(N3CCN(C)CC3)nc(Sc3ccc(NC(=O)C4CC4)cc3)n2)n[nH]1 [Tozasertib] (partner 0.1 µM)
Result: 0.321
